# Species: Rattus norvegicus
# PROCEDURE_DETAILS: Open TG-GATES - Regimen: Single
# Assay type: toxicity, organism-based, Sprague-Dawley
# Set-up: regimen Single, gender Male, age 6 weeks
# EXPERIMENTAL_CONDITIONS: in vivo, po, 0 mg/kg, 24 h, tissue Plasma, route gavage, dose level Control
MEASUREMENT_NAME: Ca (mg/dL)

>>> reported_result("CCOC(=O)C(C)(C)Oc1ccc(Cl)cc1 [CLOFIBRATE]")
10.7
>>> reported_result("Cn1cc[nH]c1=S")
11
>>> reported_result("O=[N+]([O-])c1ccc(O)c([N+](=O)[O-])c1")
11.4
>>> reported_result("Cc1cccc(C)c1OCC(C)N (centres undefined)")
10.7
>>> reported_result("OCCN1CCN(CCCN2c3ccccc3Sc3ccc(C(F)(F)F)cc32)CC1")
11.1
>>> reported_result("C[C@H]1C(=O)O[C@@H]2CCN3CC=C(COC(=O)[C@](C)(O)[C@]1(C)O)[C@H]23")
10.7
>>> reported_result("C=C(C)[C@H]1Cc2c(ccc3c2O[C@@H]2COc4cc(OC)c(OC)cc4[C@@H]2C3=O)O1")
11.5
>>> reported_result("Cc1ccc2cc3c(ccc4ccccc43)c3c2c1CC3")
10.9
>>> reported_result("C[C@H]1O[C@H](O[C@H]2[C@H](O)[C@@H](O)[C@@H](O[C@H]3[C@H](O)[C@@H](O)C(O)O[C@@H]3CO)O[C@@H]2CO)[C@H](O)[C@@H](O)[C@@H]1N[C@H]1C=C(CO)[C@@H](O)[C@H](O)[C@H]1O (some centres undefined)")
10.7
